Tested on: IGROV-1
Assay: NCI tumour cell line growth inhibition, 48 h
Calls of active or inactive are those of the source. No stated cut-off is given here; in the data, active = GI50 up to about 1.1 µM and inactive = higher.
Kindly supply the reported GI50 values for the records listed here.

**Query** Report GI50, nothing else, for this molecule: "COc1cc2c(c(O)c1C)C(=O)C(Cl)=CC2=O"
**Result** 20.4 µM (inactive)

**Query** Report GI50, nothing else, for this molecule: "N#CCCN(CCN(C(=O)Nc1ccccc1)c1ccccc1)C(=O)Nc1ccccc1"
**Result** 76.7 µM (inactive)

**Query** Report GI50, nothing else, for this molecule: "O=C(O)C/C(=C\c1ccccc1)C(=O)O"
**Result** > 100 µM (inactive)

**Query** Report GI50, nothing else, for this molecule: "COc1ccc(OC)c(-c2cn3c(n2)sc2ccccc23)c1"
**Result** > 100 µM (inactive)

**Query** Report GI50, nothing else, for this molecule: N#CCCC1C(C#N)C2CC1C1C3C=CC(C3)C21 (stereo not drawn)
**Result** > 100 µM (inactive)

**Query** Report GI50, nothing else, for this molecule: "CS(=O)(=O)OC1CCN(C2(c3cccc(O)c3)CCCCC2)CC1"
**Result** 28.7 µM (inactive)

**Query** Report GI50, nothing else, for this molecule: C/C=C\C(CC(=O)NCCc1cn(C(=O)OCc2ccccc2)c2ccccc12)CC(=O)OC (stereo not drawn)
**Result** 76.7 µM (inactive)

**Query** Report GI50, nothing else, for this molecule: "C#C[C@]1(O)CC[C@H]2[C@@H]3CCC4=C/C(=N\OCCN5CCCC5)CC[C@]4(C)[C@H]3CC[C@@]21C"
**Result** 4.79 µM (inactive)

**Query** Report GI50, nothing else, for this molecule: "CC(C)(C)OC(=O)CN1CCNCCNCC1"
**Result** > 100 µM (inactive)

**Query** Report GI50, nothing else, for this molecule: "COc1cc2ncnc(Nc3cccc(Br)c3)c2cc1OC"
**Result** 2.02 µM (inactive)

**Query** Report GI50, nothing else, for this molecule: "CN(C)C(=S)/N=c1\ss/c(=N\S(=O)(=O)c2ccccc2)n1-c1ccccc1"
**Result** 38 µM (inactive)

**Query** Report GI50, nothing else, for this molecule: "O=C(/C=C\c1ccc(-c2ccccc2)cc1)c1cccs1"
**Result** 29.4 µM (inactive)

**Query** Report GI50, nothing else, for this molecule: c1ccc(C[N+]23C(CC[C@H]2c2ccccc2)CC[C@H]3c2ccccc2)cc1 (stereo partly drawn)
**Result** 21.6 µM (inactive)

**Query** Report GI50, nothing else, for this molecule: "CCOC(=O)C1=C(C)NC(C)=C(C(=O)OCC)C1c1ccc(Cl)cc1"
**Result** 15.1 µM (inactive)

**Query** Report GI50, nothing else, for this molecule: "Nc1c(Cl)ncnc1NCC1(CO)CCC1"
**Result** > 100 µM (inactive)

**Query** Report GI50, nothing else, for this molecule: "CO/N=C1/c2sccc2[C@H](NC(=O)CNC(=O)OC(C)(C)C)[C@@H]1O"
**Result** > 100 µM (inactive)

**Query** Report GI50, nothing else, for this molecule: "Brc1ccc2nc(-c3cccs3)nc(N3CCN(c4ccccc4)CC3)c2c1"
**Result** > 100 µM (inactive)

**Query** Report GI50, nothing else, for this molecule: "Oc1c(NCn2nc(CCCCCCCCc3nn(CNc4ccc5ccccc5c4O)c(=S)o3)oc2=S)ccc2ccccc12"
**Result** 50.2 µM (inactive)

**Query** Report GI50, nothing else, for this molecule: N#CC(C(=O)C(=O)Nc1c(Cl)cccc1Cl)c1ccccc1 (stereo not drawn)
**Result** > 10 µM (inactive)

**Query** Report GI50, nothing else, for this molecule: "O=C(O)c1c(-c2nccc3ccccc23)[nH]c(-c2ccccc2)c1S(=O)(=O)O"
**Result** > 100 µM (inactive)

**Query** Report GI50, nothing else, for this molecule: "COc1ccccc1/C=C(\NC(=O)c1ccccc1)c1nc2ccccc2[nH]1"
**Result** 32.8 µM (inactive)

**Query** Report GI50, nothing else, for this molecule: "CCc1cccc(C)c1NC(=O)C(=O)Cc1nc2ccccc2s1"
**Result** 0.444 µM (active)

**Query** Report GI50, nothing else, for this molecule: CCOC(=O)[C@@H]1ON2O[C@@H](OC3CCCC3(c3ccccc3)c3ccccc3)C[C@H]3OC(=O)[C@@H]1C32 (stereo partly drawn)
**Result** 33.8 µM (inactive)

**Query** Report GI50, nothing else, for this molecule: CC1OC(CC2C=CCc3c(O)c4c(c(O)c32)C(=O)c2ccccc2C4=O)CC(NC(=O)C(F)(F)F)C1O (stereo not drawn)
**Result** 18.9 µM (inactive)

**Query** Report GI50, nothing else, for this molecule: "CCN(CCCl)CCCNc1c2ccccc2nc2ccc(OC)cc12"
**Result** 0.102 µM (active)

**Query** Report GI50, nothing else, for this molecule: CC(=O)OC1CCC2C(=CCC3C2(C)C(=O)CC2(C)C(C4(C)OC(C(C)C)=CC4=O)C(O)CC32C)C1(C)C (stereo not drawn)
**Result** 62.4 µM (inactive)

**Query** Report GI50, nothing else, for this molecule: "O=C1CCC(=O)N1n1c(Cc2ccc(Cl)cc2)n[nH]c1=O"
**Result** > 100 µM (inactive)

**Query** Report GI50, nothing else, for this molecule: "O=C1Nc2nccnc2C(=O)N2CCC[C@@H]12"
**Result** > 100 µM (inactive)

**Query** Report GI50, nothing else, for this molecule: "NC(N)=NCCC(O)(P(=O)(O)O)P(=O)(O)O"
**Result** > 100 µM (inactive)

**Query** Report GI50, nothing else, for this molecule: "O=c1[nH]c2ccccc2cc1C(Cl)=C(Cl)Cl"
**Result** > 100 µM (inactive)

**Query** Report GI50, nothing else, for this molecule: C[S+]([O-])c1cc(=O)c2ccccc2s1 (stereo not drawn)
**Result** 17.5 µM (inactive)

**Query** Report GI50, nothing else, for this molecule: "c1ccc2c(c1)CCN(C1=NCCO1)C2"
**Result** > 10 µM (inactive)

**Query** Report GI50, nothing else, for this molecule: "C=CCN1CN(c2ccccc2)C2(CCN(CCCC3(c4ccc(F)cc4)OCCO3)CC2)C1=O"
**Result** 19.9 µM (inactive)

**Query** Report GI50, nothing else, for this molecule: "O=C(c1ccc(Cl)cc1)N(C(=O)N1CCC(c2ccccc2)CC1)c1ccccc1"
**Result** 17.9 µM (inactive)

**Query** Report GI50, nothing else, for this molecule: "Cc1nc(Nc2nc3ccccc3[nH]2)[nH]c(=O)c1CCO"
**Result** 12.3 µM (inactive)

**Query** Report GI50, nothing else, for this molecule: "Cc1ccc(-n2cc(-c3ccc(Cl)cc3)c3c(NN)ncnc32)cc1"
**Result** 1.85 µM (inactive)

**Query** Report GI50, nothing else, for this molecule: CC(Oc1ccc(OCC2CCCCC2)cc1)C(=O)O (stereo not drawn)
**Result** > 100 µM (inactive)

**Query** Report GI50, nothing else, for this molecule: COC(=O)c1cc(C)ccc1CC(Cc1cccc(C)c1)C(=O)OC (stereo not drawn)
**Result** > 100 µM (inactive)

**Query** Report GI50, nothing else, for this molecule: "COC(=O)C1(C(=O)OC)Cc2ccc(OC)cc2C2=C1C(=O)c1ccccc1C2=O"
**Result** 2.77 µM (inactive)

**Query** Report GI50, nothing else, for this molecule: "CC(=O)OCC1=C(COC(C)=O)C(=O)c2c(O)ccc(O)c2C1=O"
**Result** 16 µM (inactive)

**Query** Report GI50, nothing else, for this molecule: CCNC(=O)O/N=C1\CCC2[C@@H]3CC=C4C[C@@H](OC(=O)NCC)CC[C@]4(C)C3CC[C@]12C (stereo partly drawn)
**Result** 4.43 µM (inactive)

**Query** Report GI50, nothing else, for this molecule: "Cc1ccc(-n2cc(/C(N)=N/O)c3ccccc3c2=O)cc1"
**Result** > 100 µM (inactive)

**Query** Report GI50, nothing else, for this molecule: "O=C(O)[C@H]1CCCN1CP(=O)(O)CN1CCC[C@@H]1C(=O)O"
**Result** > 100 µM (inactive)

Each recorded value in this set is attributed to ChEMBL document CHEMBL1201862.
